target: T1, recombinant biotinylated CD71 extracellular domain (Sino Biologics) with an N-terminal 6His tag (human, UniProt P02786 89-760, biotinylated (sites not given)); assay: screening ELISA, ratio
T1 construct: extracellular domain; also called hCD71; huCD71
T1 sequence (P02786 other isoform, or with tags, fused parts or gaps): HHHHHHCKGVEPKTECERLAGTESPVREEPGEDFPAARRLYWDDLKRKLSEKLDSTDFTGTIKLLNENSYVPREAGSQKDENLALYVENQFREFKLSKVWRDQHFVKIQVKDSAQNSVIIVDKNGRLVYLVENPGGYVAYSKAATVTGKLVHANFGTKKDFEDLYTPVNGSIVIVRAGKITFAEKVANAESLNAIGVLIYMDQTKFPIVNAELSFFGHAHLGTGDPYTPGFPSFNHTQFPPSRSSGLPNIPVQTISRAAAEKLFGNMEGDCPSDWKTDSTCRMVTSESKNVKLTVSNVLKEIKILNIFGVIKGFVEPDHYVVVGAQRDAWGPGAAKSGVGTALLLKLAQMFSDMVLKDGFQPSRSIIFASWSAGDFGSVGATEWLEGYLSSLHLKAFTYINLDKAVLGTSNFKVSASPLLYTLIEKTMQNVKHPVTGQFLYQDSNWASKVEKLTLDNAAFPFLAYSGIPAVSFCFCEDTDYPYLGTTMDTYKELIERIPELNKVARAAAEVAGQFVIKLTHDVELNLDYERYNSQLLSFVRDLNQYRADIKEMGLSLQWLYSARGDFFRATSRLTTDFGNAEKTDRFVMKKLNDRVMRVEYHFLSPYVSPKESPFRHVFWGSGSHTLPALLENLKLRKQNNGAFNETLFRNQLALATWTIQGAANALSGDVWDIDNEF
measured-metric: hCD71:HSA

SEQ ID NO 214 (designed binder, FN3 domain) MLPAPKNLVVSRVTEDSARLSWTAPDAAFDSFAIPYGERQELGEAIVLTVPGSERSYDLTGLKPGTEYFVVIQGVKGGQPSYPLSAIFTT ... 974
SEQ ID NO 181 (designed binder, FN3 domain) MLPAPKNLVVSHVTEDSARLSWTAPDAAFDSFPIAYAEPRPDGEAIVLTVPGSERSYDLTGLKPGTEYSVLIHGVKGGLLSSPLSAIFTT ... 491
SEQ ID NO 287 (designed binder, FN3 domain) MLPAPKNLVVSRVTEDSARLSWTAPDAAFDSFTIEYHESGPVGEAIVLTVPGSERSYDLTGLKPGTEYMVWIFGVKGGFVSRPLSAIFTT ... 706
SEQ ID NO 116 (designed binder, FN3 domain) MLPAPKNLVVSRVTEDSARLSWTAPDAAFDSFSIAYSEVRYDGEAIVLTVPGSERSYDLTGLKPGTEYVVPIGGVKGGGSSSPLSAIFTT ... 358
SEQ ID NO 193 (designed binder, FN3 domain) MLPAPKNLVVSRVTEDSARLSWTAPDAAFDSFTIWYAEAVGNGEAIVLTVPGSERSYDLTGLKPGTEYWVDIWGVKGGEFSSPLSAIFTT ... 1550

(P) SEQ ID NO 283 (designed binder, FN3 domain) MLPAPKNLVVSRVTEDSARLSWTAPDAAFDSFPIAYAEPRPDGEAIVLTVPGSERSYDLTGLKPGTEYSVLIHGVKGGLLSSPLSAIFTT
(Q) SEQ ID NO 109 (designed binder, FN3 domain) MLPAPKNLVVSRVTEDSARLSWTAPDAAFDSFHIAYEELVTEGEAIYLRVPGSERSYDLTGLKPGTEYLVDIEGVKGGHLSSPLSAIFTT
(R) SEQ ID NO 117 (designed binder, FN3 domain) MLPAPKNLVVSRVTEDSARLSWTAPDAAFDSFTIPYGEAFNPGEAIVLTVPGSERSYDLTGLKPGTEYDVFIEGVKGGTLSWPLSAIFTT
(S) SEQ ID NO 185 (designed binder, FN3 domain) MLPAPKNLVVSRVTEDSARLSWTAPDAAFDSFEIDYDELAIYGEAIVLTVPGSERSYDLTGLKPGTEYGVMIIGVKGGLPSDPLSAIFTT
Lookup: Rank order required: hCD71:HSA, descending. Give the labels in the order requested.
Found: Q, P, S, R
(Q: 3860, P: 472, S: 182, R: 64)

(1) SEQ ID NO 220 (designed binder, FN3 domain) MLPAPKNLVVSRVTEDSARLSWTAPDAAFDSFHIIYEEDGTEGEAIYLRVPGSERSYDLTGLKPGTEYEVDIEGVKGGVLSWPLFAEFTT
(2) SEQ ID NO 254 (designed binder, FN3 domain) MLPAPKNLVVSRVTEDSARLSWTAPDAAFDSFFIPYAEPSPTGEAIVLTVPGSERSYDLTGLKPGTEYSVLIHGVKGGHLSDPLSAISTT
Lookup: Of 1 and 2 , whose reported hCD71:HSA is the larger number? Give the chosen item's label as your response.
Found: 1

(a) SEQ ID NO 179 (designed binder, FN3 domain) MLPAPKNLVVSRVTEDSARLSWTAPDAAFDSFYIAYAEPRPDGEAIVLTVPGSERSYDLTGLKPGTEYPVPIPGVKGGPGSSPLSAIFTT
(b) SEQ ID NO 222 (designed binder, FN3 domain) MLPAPKNLVVSRVTEDSARLSWTAPDAAFDSFYIEYFEWTGSGEAIVLTVPGSERSYDLTGLKPGTEYNVAIYGVKGGAVSYPLSAIFTT
Lookup: For the pair a and b , which member has the lower hCD71:HSA number? Output the label that corresponds to your choice.
Found: a
